# target: Peroxisome proliferator-activated receptor alpha (Homo sapiens)
# measurement_description: qHTS assay for small molecule agonists of the peroxisome proliferator-activated receptor alpha (PPARalpha) signaling pathway (AID 651778); further: % of control where 0% means no effect
# test_parameters: PathHunter PPARalpha complementation, chemiluminescence, 6 h; active compounds read high
What max response was measured for each of the following?
Give bare numbers, in %.

{"columns": ["input_smiles", "reading"],
 "data": [
  ["BrCC(Br)(Br)Br", -5.78]
]}

// input: 8 compounds below; output: max response for each
1. CCN(N=O)C(N)=O
2. COC(C)(C)C
3. Brc1ccc(Oc2ccc(Br)cc2Br)c(Br)c1
4. O=C(O)C(Cl)(Cl)Br
5. CC(C)[N+](=O)[O-]
6. Cc1ccc(N)cc1C
7. O=[N+]([O-])CCO
8. CC(C)OS(C)(=O)=O

1.39
-1.3
6.57
-5.37
-6.42
-0.229
-2.47
-9.26

* * *

# target: Mitogen-activated protein kinase 10 (Mus musculus) (UniProt Q61831)
# measurement_description: JNK3 AlphaScreen Assay (AID 530);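 further: kinase came from lysate of stimulated human HepG2 cells; signal reports phosphorylation of biotinylated GST-cJun 1-79 at Ser73 with 10 µM ATP; on the % scale 0 is the no-effect control and ±100 the full control effect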
# test_parameters: JNK3 lysate, c-Jun phosphorylation; series mostly up to 57.1 µM
Records with an inconclusive call do not appear. Active and inactive are the calls of the source. The call rests on the fitted dose curve; in most records, active means well fitted curve in either direction with a large enough effect (not every such curve was filed as active); inconclusive means small, poorly fitted or top-dose-only effect, or another doubt; inactive means flat fitted curve, though single readings scatter.
reported_property: activity change, negative = inhibition

Field: example entries. Status: answers known.
{"columns": ["compound", "reading"],
 "data": [
  ["CC(=O)O[C@H]1CC[C@@]2(C)[C@@H](CC[C@H]3[C@H]2CC(=O)[C@]2(C)[C@@H]3C[C@@H](N3CC3)[C@H]2C(C)=O)C1", "-0.773% [at 11.4 µM] (inactive)"],
  ["O=C(Oc1ccc(S(=O)(=O)F)cc1F)c1ccccc1Cl", "2.49% [at 11.4 µM] (inactive)"],
  ["Cc1ccc(N=C=O)cc1N=C=O", "inactive"],
  ["Cc1ccc(C2(c3ccc(C)c(O)c3C)CCN(C)CC2)c(C)c1O", "1.97% [at 11.4 µM] (inactive)"],
  ["C=CCOCC1CO1 (stereo not drawn)", "inactive"]
]}

// input: 2 compounds below; output: activity change, negative = inhibition for each
1. Nc1cc(Cl)ccc1O
2. [O-][Cl+]O

inactive
inactive

// input: 7 compounds below; output: activity change, negative = inhibition for each
1. C[C@@]12CC[C@H](O[C@@H]3O[C@H](CO)[C@@H](O)[C@H](O)[C@@H]3O)C[C@@H]1CC[C@H]1[C@H]2CC[C@@]2(C)[C@@H](C3=CCOC3=O)CC[C@]12O
2. CC(=O)OCC1=C(C(=O)[O-])N2C(=O)[C@@H](NC(=O)CCC[C@@H](N)C(=O)[O-])[C@@H]2SC1.[Zn+2]
3. ClC(Br)Br
4. COc1cccc2c1C(=O)c1c(O)c3c(c(O)c1C2=O)C[C@](O)(/C(C)=N\O)C[C@@H]3O[C@H]1C[C@H](N)[C@@H](O)[C@H](C)O1
5. C[C@H](c1ccccc1)N1CCN([C@@H](C)c2ccccc2)CC1
6. O=C(CCN1CC2CCC(CC2)C1)c1cccs1
7. O=C(Nc1ccc([As](=O)(O)O)cc1)Nc1cccc(Cl)c1Cl

["8.37% [at 11.4 µM] (inactive)", "inactive", "inactive", "-16.4% [at 11.4 µM] (inactive)", "1.95% [at 11.4 µM] (inactive)", "0.402% [at 11.4 µM] (inactive)", "0.483% [at 11.4 µM] (inactive)"]

// input: 4 compounds below; output: activity change, negative = inhibition for each
1. NCCc1ccc(S(=O)(=O)O)cc1[N+](=O)[O-]
2. CC(C)(C)OOC(=O)c1ccccc1
3. C[C@]12CC[C@@H]3[C@H](CCC4=CC(=O)CC[C@]43C)[C@]1(O)CC[C@@]2(O)C(=O)CO
4. Cc1ccc(S(=O)ON2CCC(C(=O)O)(c3ccccc3)CC2)cc1 (stereo not drawn)

["10.9% [at 11.4 µM] (inactive)", "inactive", "4.11% [at 11.4 µM] (inactive)", "5.44% [at 11.4 µM] (inactive)"]

Each recorded value in this set is attributed to PubChem BioAssay (NCATS).
